# Experimental target: human cloned 5-HT6 receptors (Homo sapiens, UniProt P50406)
# Construct: expressed in transfected cells; host or cells: HeLa cells
# Sequence (P50406 whole entry): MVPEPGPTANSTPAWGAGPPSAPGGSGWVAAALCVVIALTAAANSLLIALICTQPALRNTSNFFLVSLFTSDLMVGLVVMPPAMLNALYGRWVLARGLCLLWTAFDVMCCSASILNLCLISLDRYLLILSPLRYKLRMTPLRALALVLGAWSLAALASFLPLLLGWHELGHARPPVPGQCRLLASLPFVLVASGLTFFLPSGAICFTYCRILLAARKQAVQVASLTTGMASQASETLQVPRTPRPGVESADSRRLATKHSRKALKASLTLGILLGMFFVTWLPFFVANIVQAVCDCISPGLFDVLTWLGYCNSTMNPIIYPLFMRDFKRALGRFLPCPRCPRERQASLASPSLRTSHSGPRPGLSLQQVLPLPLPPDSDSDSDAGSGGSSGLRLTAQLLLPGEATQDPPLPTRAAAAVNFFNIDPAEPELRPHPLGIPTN
# Assay procedure: 5-HT6 binding affinity, [3H]-LSD displacement on membranes of Hela cells
# Condition summary: Table 1; 5-HT6 binding, at 1 micromole; read-out: % inhibition at 1 micromole
Readout type: inhibition at 1 µM (%)

| Compound | Unit symbol | inhibition at 1 µM |
| --- | --- | --- |
| CCNCCc1cccc2[nH]cc(S(=O)(=O)c3cccc(F)c3)c12 | % | 57 |
| CC(C)NCCc1ccc2c(S(=O)(=O)c3ccccc3)c[nH]c2c1 | % | 78 |
| CCCNCCc1cccc2[nH]cc(S(=O)(=O)c3cccc(F)c3)c12 | % | 67 |
| O=S(=O)(c1ccccc1)c1c[nH]c2cccc(CCC3CNCCO3)c12 (centres unmarked) | % | 54 |
| O=S(=O)(c1ccccc1)c1c[nH]c2cc(CCN3CCNCC3)ccc12 | % | 55 |

* * *

# Experimental target: human cloned 5-HT6 receptors (Homo sapiens)
# Construct: expressed in transfected cells; host or cells: HeLa cells
# Assay procedure: 5-HT6 binding affinity, [3H]-LSD displacement on membranes of Hela cells
# Condition summary: read-out: % inhibition at 1 micromole
Readout type: inhibition at 1 µM (%)
Write it as a number; the unit % goes unstated.

A selection of reference data follows.
| Structure smiles string | Observed |
| --- | --- |
| O=S(=O)(c1ccccc1)c1c[nH]c2cccc(CCN3CCCCC3)c12 | 69 |
| CCN(C)CCc1cccc2[nH]cc(S(=O)(=O)c3ccccc3)c12 | 52 |
| O=S(=O)(c1ccccc1)c1c[nH]c2cccc(CCNC3CCCCC3)c12 | 42 |
| CC(C)CNCCc1cccc2[nH]cc(S(=O)(=O)c3ccccc3)c12 | 66 |

Next compound, inhibition at 1 µM to be filled in.
Query `CN(C)CCc1cccc2[nH]cc(S(=O)(=O)c3cccc(F)c3)c12` yields inhibition at 1 µM of 72

* * *

# Experimental target: human cloned 5-HT6 receptors (Homo sapiens, UniProt P50406)
# Construct: expressed in transfected cells; host or cells: HeLa cells
# Assay procedure: 5-HT6 binding affinity, [3H]-LSD displacement on membranes of Hela cells
# Condition summary: Table 1; [3H]-LSD 3.0 nM, Hela cell membranes; read-out: Ki (nM) @ 5-HT6 receptor
Readout type: Ki (nM)

| Molecule | Ki (nM) |
| --- | --- |
| O=S(=O)(c1ccccc1)c1c[nH]c2c(CCN3CCCCC3)cccc12 | 13 |
| O=S(=O)(c1ccccc1)c1c[nH]c2cccc(CCN3CCCC3)c12 | 73 |
| O=S(=O)(c1ccccc1)c1c[nH]c2ccc(CCNCc3ccccc3)cc12 | 24 |
| CCN(C)CCc1cccc2c(S(=O)(=O)c3ccccc3)c[nH]c12 | 11 |
| O=S(=O)(c1ccccc1)c1c[nH]c2cccc(CCNC3CCCC3)c12 | 137 |

1: O=S(=O)(c1ccccc1)c1c[nH]c2cc(CCN3CCC3)ccc12
2: CN(C)CCc1cccc2c(S(=O)(=O)c3ccccc3)c[nH]c12
3: CN(C)CCc1cccc2[nH]cc(S(=O)(=O)c3ccccc3)c12
4: CC(NCCc1cccc2[nH]cc(S(=O)(=O)c3cccc(F)c3)c12)C(C)(C)C (stereo not drawn)
Ordering: ascending Ki. Write the labels, ordered according to the request. 2, 4, 1, 3
(2: 2.3 nM, 4: 13 nM, 1: 74 nM, 3: 142 nM)
